The origin of these recorded values is ChEMBL document CHEMBL1201862.

system: SN12C; test: NCI tumour cell line growth inhibition, 48 h
Active and inactive are the calls of the source. Rule as the data show it: active = GI50 up to about 1.1 µM and inactive = higher.
measurement-label: GI50

Fill in reported GI50 for this entry: O=[N+]([O-])c1cc(-c2nc(-c3ccccc3)c(-c3ccccc3)[nH]2)c(O)c([N+](=O)[O-])c1 26.5 µM (inactive)

Fill in reported GI50 for this entry: C=C1C(=O)O[C@@H]2C[C@@H](C)[C@@H]3C=CC(=O)[C@@]3(C)[C@@H](O)[C@H]12 1.36 µM (inactive)

Fill in reported GI50 for this entry: CCCCCCCCCCCCCC(=O)OCC1OC(=O)CC1O (configuration not stated) > 100 µM (inactive)

Fill in reported GI50 for this entry: CC(C)c1ccc(/C(C(=O)O)=C(\O)C(=O)O)cc1 > 100 µM (inactive)

Fill in reported GI50 for this entry: CC1(C)COC(/C=C/C2=NC(C)(C)CO2)=N1 1.95 µM (inactive)

Fill in reported GI50 for this entry: CCCCCCCC/C=C\CCCCCCCC(=O)OC[C@]1(CO)CCC(=O)O1 > 100 µM (inactive)

Fill in reported GI50 for this entry: CC1(C)CC(=O)C(=CNc2nc(-c3cccc([N+](=O)[O-])c3)cs2)C(=O)C1 18.1 µM (inactive)

Fill in reported GI50 for this entry: Cn1c(=O)c2nc(N3CCOCC3)cnc2n(C)c1=O > 100 µM (inactive)

Fill in reported GI50 for this entry: Cc1nc(-c2cccnc2)sc1C(=O)CC(=O)C(=O)Nc1cccc(NC(=O)C(=O)CC(=O)c2sc(-c3cccnc3)nc2C)n1 > 100 µM (inactive)

Fill in reported GI50 for this entry: Cc1c(/C=N/NC(=O)c2ccccc2)c(=O)n(-c2ccccc2)n1C > 100 µM (inactive)

Fill in reported GI50 for this entry: COC(=O)Nc1nc2cc(Br)ccc2[nH]1 > 100 µM (inactive)

Fill in reported GI50 for this entry: C=C1C(=O)OC2/C=C(\CO)C3OC3C3OC3(C)CC(OC(=O)/C(=C/C)COC(C)=O)C12 (configuration not stated) 3.2 µM (inactive)

###

system: MDA-MB-435; test: NCI tumour cell line growth inhibition, 48 h
The source made the active and inactive calls. Rule as the data show it: active = GI50 up to about 1.1 µM and inactive = higher.
Answer each item with its documented GI50.

Fill in reported GI50 for this entry: COc1ccc(C2N(c3ccc(C)c(N=C=O)c3)C(=O)N3C(c4ccc(OC)cc4)N(c4ccc(C)c(N=C=O)c4)C(=O)N23)cc1 (configuration not stated) > 100 µM (inactive)

Fill in reported GI50 for this entry: O=P(Nc1ccccc1)(Oc1ccccc1)N1CCN(c2ccccc2)CC1 (configuration not stated) 20.8 µM (inactive)

Fill in reported GI50 for this entry: c1ccc(/N=C2\S/C(=N\C3CCCCC3)N(C3CCCCC3)\C2=N/c2ccccc2)cc1 > 100 µM (inactive)

Fill in reported GI50 for this entry: O=C1NCN(c2ccccc2)C12CCN(CCCN1CCN(CCOC(c3ccc(F)cc3)c3ccc(F)cc3)CC1)CC2 1.76 µM (inactive)

Fill in reported GI50 for this entry: O=[N+]([O-])c1ccc2ncccc2c1CCc1c([N+](=O)[O-])ccc2ncccc12 > 100 µM (inactive)

Fill in reported GI50 for this entry: Cc1c2cc[n+](C)c(C)c2cc2c1[nH]c1ccccc12 16.2 µM (inactive)

Fill in reported GI50 for this entry: CC(=O)N1c2ccccc2C(C)C1c1[nH]c2ccccc2c1C (configuration not stated) 18.2 µM (inactive)
